Entry source: ChEMBL document CHEMBL1135903

Entries with reported log10(Ki) on Carbonic anhydrase 4 (Bos taurus, UniProt Q95323)
Answers are given as log10 of Ki in nM.

Below are worked cases with known answers.
[[record]]
sample_smiles = "NS(=O)(=O)c1ccc(CNC(=O)CN(CCN(CCN(CC(=O)O)CC(=O)NCc2ccc(S(N)(=O)=O)cc2)CC(=O)O)CC(=O)O)cc1"
system_tested = "Carbonic anhydrase 4 (Bos taurus, UniProt Q95323)"
property_label = "log10(Ki)"
measurement = 1.32

[[record]]
sample_smiles = "NS(=O)(=O)c1cccc(NC(=O)CN(CCOCCOCCN(CC(=O)O)CC(=O)O)CC(=O)O)c1"
system_tested = "Carbonic anhydrase 4 (Bos taurus, UniProt Q95323)"
property_label = "log10(Ki)"
measurement = 2.70

[[record]]
sample_smiles = "NS(=O)(=O)c1ccc(COC(=O)CN(CCN(CC(=O)O)CC(=O)OCc2ccc(S(N)(=O)=O)cc2)CC(=O)O)cc1"
system_tested = "Carbonic anhydrase 4 (Bos taurus, UniProt Q95323)"
property_label = "log10(Ki)"
measurement = 2.30

[[record]]
sample_smiles = "NS(=O)(=O)c1nc2ccc(OCCOC(=O)CN(CCN(CC(=O)O)CC(=O)O)CC(=O)O)cc2s1"
system_tested = "Carbonic anhydrase 4 (Bos taurus, UniProt Q95323)"
property_label = "log10(Ki)"
measurement = 0.90

[[record]]
sample_smiles = "NS(=O)(=O)c1nc2ccc(NC(=O)CN(CCN(CCN(CC(=O)O)CC(=O)O)CC(=O)O)CC(=O)O)cc2s1"
system_tested = "Carbonic anhydrase 4 (Bos taurus, UniProt Q95323)"
property_label = "log10(Ki)"
measurement = 0.95


Q: Dear colleague, please send me the reported log10(Ki) for NS(=O)(=O)c1ccc(CNC(=O)CN(CCOCCOCCN(CC(=O)O)CC(=O)NCc2ccc(S(N)(=O)=O)cc2)CC(=O)O)cc1 when you can.
Ans: 1.59

Q: Dear colleague, please send me the reported log10(Ki) for Cn1nc(S(N)(=O)=O)s/c1=N/C(=O)CN(CCN(CC(=O)O)CC(=O)/N=c1/sc(S(N)(=O)=O)nn1C)CC(=O)O when you can.
Ans: 0.90

Q: Dear colleague, please send me the reported log10(Ki) for NS(=O)(=O)c1ccc(NNC(=O)CN(CC(=O)O)CC(=O)O)cc1 when you can.
Ans: 2.97

---

Protein target, amino acids: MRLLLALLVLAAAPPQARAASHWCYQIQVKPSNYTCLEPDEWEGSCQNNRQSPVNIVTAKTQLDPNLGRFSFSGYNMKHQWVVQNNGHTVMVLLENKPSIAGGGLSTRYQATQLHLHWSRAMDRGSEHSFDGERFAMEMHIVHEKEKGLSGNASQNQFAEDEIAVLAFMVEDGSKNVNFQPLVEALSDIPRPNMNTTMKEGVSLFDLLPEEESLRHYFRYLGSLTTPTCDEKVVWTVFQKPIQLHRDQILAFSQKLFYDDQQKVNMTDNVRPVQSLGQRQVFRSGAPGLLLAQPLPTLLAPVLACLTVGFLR
PROPERTY_LABEL: Ki (nM)
Numbers only here, please. The scale is nM.

Below are worked cases with known answers.
[[record]]
sample_smiles = "NS(=O)(=O)c1nnc(NC(=O)CNCC(=O)O)s1"
measurement = 265

[[record]]
sample_smiles = "NS(=O)(=O)c1ccc(NC(=O)CNCCNCC(=O)O)c(I)c1"
measurement = 115


Q: Dear colleague, please send me the reported Ki for NS(=O)(=O)c1ccc(CCOC(=O)CN(CCN(CC(=O)O)CC(=O)OCCc2ccc(S(N)(=O)=O)cc2)CC(=O)O)cc1 when you can.
Ans: 165

Q: Dear colleague, please send me the reported Ki for NS(=O)(=O)c1ccc(CCOC(=O)CNCCNCC(=O)O)cc1 when you can.
Ans: 330

Q: Dear colleague, please send me the reported Ki for NS(=O)(=O)c1cc(S(N)(=O)=O)c(NC(=O)CNCCNCC(=O)O)cc1Cl when you can.
Ans: 135

Q: Dear colleague, please send me the reported Ki for NS(=O)(=O)c1nnc(NC(=O)CCNC(=O)CNCC(=O)O)s1 when you can.
Ans: 48

Q: Dear colleague, please send me the reported Ki for NS(=O)(=O)c1nnc(NC(=O)CN(CCN(CC(=O)O)c2ccccc2O)c2ccccc2O)s1 when you can.
Ans: 105

Q: Dear colleague, please send me the reported Ki for NS(=O)(=O)c1ccc(NC(=O)CN(CCOCCOCCN(CC(=O)O)CC(=O)O)CC(=O)O)c(I)c1 when you can.
Ans: 24

Q: Dear colleague, please send me the reported Ki for NS(=O)(=O)c1ccc(CCNC(=O)CN(CCN(CC(=O)O)CC(=O)NCCc2ccc(S(N)(=O)=O)cc2)CC(=O)O)cc1 when you can.
Ans: 13

Q: Dear colleague, please send me the reported Ki for NS(=O)(=O)c1ccc(CCNC(=O)CNCC(=O)O)cc1 when you can.
Ans: 257

---

- PROTOCOL_DETAILS: Solubility in Chloroform buffer at pH 7.4
- Format: physicochemical
Could you label it Yes if measured solubility is 50 mM or higher, and No otherwise?

Sample answers from the record:
[[record]]
sample_smiles = "NS(=O)(=O)c1ccc(NC(=O)CN(CCN(CCN(CC(=O)O)CC(=O)O)CC(=O)O)CC(=O)O)cc1"
classification = "No"

[[record]]
sample_smiles = "Cn1nc(S(N)(=O)=O)s/c1=N/C(=O)CN(CCN(CC(=O)O)CC(=O)O)CC(=O)O"
classification = "Yes"


Q: Is reported solubility greater than or equal to 50 mM here: NS(=O)(=O)c1nnc(NC(=O)CCNC(=O)CN(CCN(CC(=O)O)c2ccccc2O)c2ccccc2O)s1
Ans: No

Q: Is reported solubility greater than or equal to 50 mM here: NS(=O)(=O)c1nnc(NC(=O)CN(CCN(CCN(CC(=O)O)CC(=O)O)CC(=O)O)CC(=O)O)s1
Ans: Yes

Q: Is reported solubility greater than or equal to 50 mM here: NS(=O)(=O)c1ccc(NC(=O)CN(CCN(CCN(CC(=O)O)CC(=O)Nc2ccc(S(N)(=O)=O)cc2)CC(=O)O)CC(=O)O)cc1
Ans: No

Q: Is reported solubility greater than or equal to 50 mM here: Cn1nc(S(N)(=O)=O)s/c1=N/C(=O)CN(CCN(CC(=O)O)CC(=O)/N=c1/sc(S(N)(=O)=O)nn1C)CC(=O)O
Ans: No

Q: Is reported solubility greater than or equal to 50 mM here: NS(=O)(=O)c1cc(S(N)(=O)=O)c(NC(=O)CN(CCN(CC(=O)O)CC(=O)Nc2c(S(N)(=O)=O)cc(S(N)(=O)=O)c(Cl)c2Cl)CC(=O)O)c(Cl)c1Cl
Ans: No

---

- PROTOCOL_DETAILS: physchem
- EXPERIMENTAL_PARAMETERS: buffer, pH 5.5
- Description: Solubility in buffer at pH 5.5
molecules and their reported solubility
Numbers only here, please. The scale is mM.

Below are worked cases with known answers.
[[record]]
molecule = "NS(=O)(=O)C1N=NC(NC(=O)CN(CCN(CCN(CC(=O)O)CC(=O)NC2N=NC(S(N)(=O)=O)S2)CC(=O)O)CC(=O)O)S1 (stereo not given)"
unit_info = "mM"
measurement = 54

[[record]]
molecule = "NS(=O)(=O)c1nc2ccc(OC(=O)CNCCNCC(=O)O)cc2s1"
unit_info = "mM"
measurement = 44

[[record]]
molecule = "NS(=O)(=O)c1nnc(NC(=O)CN(CCOCCOCCN(CC(=O)O)CC(=O)O)CC(=O)O)s1"
unit_info = "mM"
measurement = 52

[[record]]
molecule = "NS(=O)(=O)c1ccc(NC(=O)CN(CCOCCOCCN(CC(=O)O)CC(=O)O)CC(=O)O)c(Br)c1"
unit_info = "mM"
measurement = 50


Q: Dear colleague, please send me the reported solubility for NS(=O)(=O)c1ccc(NC(=O)CN(CCOCCOCCN(CC(=O)O)CC(=O)Nc2ccc(S(N)(=O)=O)cc2F)CC(=O)O)c(F)c1 when you can.
Ans: 47

---

Entries with reported Ki on Carbonic anhydrase 1 (Homo sapiens, UniProt P00915)
Sequence (P00915 whole entry): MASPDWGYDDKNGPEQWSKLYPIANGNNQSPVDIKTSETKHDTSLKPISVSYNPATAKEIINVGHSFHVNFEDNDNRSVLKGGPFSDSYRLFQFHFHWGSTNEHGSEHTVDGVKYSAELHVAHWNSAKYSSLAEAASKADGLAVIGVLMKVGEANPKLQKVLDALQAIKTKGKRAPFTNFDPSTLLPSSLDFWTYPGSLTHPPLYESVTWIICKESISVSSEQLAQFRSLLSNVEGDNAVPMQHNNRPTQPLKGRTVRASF
Numbers only here, please. The scale is nM.

Below are worked cases with known answers.
[[record]]
sample_smiles = "NS(=O)(=O)c1ccccc1NC(=O)CN(CC(=O)O)CC(=O)O"
property_label = "Ki"
unit_info = "nM"
measurement = 25800

[[record]]
sample_smiles = "NS(=O)(=O)c1nnc(NC(=O)CN(CCOCCOCCN(CC(=O)O)CC(=O)Nc2nnc(S(N)(=O)=O)s2)CC(=O)O)s1"
property_label = "Ki"
unit_info = "nM"
measurement = 27


Q: Dear colleague, please send me the reported Ki for NS(=O)(=O)c1cc(S(N)(=O)=O)c(NC(=O)CN(CCN(CC(=O)O)CC(=O)O)CC(=O)O)cc1Cl when you can.
Ans: 210

Q: Dear colleague, please send me the reported Ki for NS(=O)(=O)c1ccc(NC(=O)CN(CC(=O)O)CC(=O)O)c(I)c1 when you can.
Ans: 510

Q: Dear colleague, please send me the reported Ki for NS(=O)(=O)c1ccc(NC(=O)CN(CCN(CC(=O)O)CC(=O)O)CC(=O)O)cc1 when you can.
Ans: 6300

Q: Dear colleague, please send me the reported Ki for Cn1nc(S(N)(=O)=O)s/c1=N/C(=O)CN(CCOCCOCCN(CC(=O)O)CC(=O)/N=c1/sc(S(N)(=O)=O)nn1C)CC(=O)O when you can.
Ans: 32

Q: Dear colleague, please send me the reported Ki for NS(=O)(=O)c1nc2ccc(OCCOC(=O)CNCC(=O)O)cc2s1 when you can.
Ans: 46

Q: Dear colleague, please send me the reported Ki for NS(=O)(=O)c1nc2ccc(OC(=O)CN(CCN(CC(=O)O)CC(=O)Oc3ccc4nc(S(N)(=O)=O)sc4c3)CC(=O)O)cc2s1 when you can.
Ans: 37
